System Under Test: T1, human IL-2Rβ (human, UniProt P14784 27-240, limits assumed)
T1 construct: Recombinant protein, coated (ELISA) or immobilised on CM5 (SPR); also called hu IL-2R; interleukin 2 receptor β-chain
T1 sequence: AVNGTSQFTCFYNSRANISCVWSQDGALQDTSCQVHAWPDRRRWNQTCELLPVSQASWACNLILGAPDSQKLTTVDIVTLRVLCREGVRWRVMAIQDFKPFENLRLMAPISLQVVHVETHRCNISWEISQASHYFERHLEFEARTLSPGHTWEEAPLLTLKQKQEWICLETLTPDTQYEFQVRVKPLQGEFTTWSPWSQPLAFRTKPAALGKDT
Test Name: P.E. binding ELISA on coated protein
Could you please report measured P.E. binding ELISA OD for the items listed next?
Numbers only, in OD450 nm.

FJ1427 P035MP03C12 (VHH, soluble VHH in periplasmic extract; also called clone nr) VHH: QVQLVESGGGLVQAGGSLRLSCAASGRAFSTYSMGWFRQTPGKEREFVAIISESGGIIDYGDSVKGRFTLSRDNAKNTVSLQMSSLQPEDTAVYYCAAARDWFARTAYQYDYWGQGTQVTVSA :: 0.321

Incoming: Item under review: FJ1427_P035MP06H01 (VHH, soluble VHH in periplasmic extract; also called clone nr) VHH: EVQLVESGGGLVQAGGSLRLSCAVSGDVFVRYTMAWFRQAPGKEREFVASVTDSGRTTDYVHSVKGRFTVSRDNAKNTVYLQMNNLKPEDTAVYYCAANTDYFQIKSLDANTWGQGTQVTVSS . Reported P.E. binding ELISA OD?
Outgoing: 0.72
